EXPERIMENT NOTES: qHTS assay for small molecule disruptors of the mitochondrial membrane potential - 1 hr assay (AID 651754); further: nearly all actives have a fitted effect of over 35% in size
CONDITION DETAILS: series mostly up to 92.2 µM
Results filed as inconclusive are left out. Activity calls are given as the source filed them. The call rests on the fitted dose curve.
Classes used: true for active, false for inactive

- Cc1c(N)cccc1N: true
- C[C@@H]1CC[C@@]2(OC1)O[C@H]1[C@@H](O)[C@H]3[C@@H]4CC[C@H]5C[C@@H](O[C@@H]6O[C@H](CO)[C@H](O[C@@H]7O[C@H](CO)[C@@H](O)[C@H](O[C@@H]8OC[C@@H](O)[C@H](O)[C@H]8O)[C@H]7O[C@@H]7O[C@H](CO)[C@@H](O)[C@H](O[C@@H]8O[C@H](CO)[C@@H](O)[C@H](O)[C@H]8O)[C@H]7O)[C@H](O)[C@H]6O)[C@H](O)C[C@]5(C)[C@H]4CC[C@]3(C)[C@H]1[C@@H]2C: true
- Oc1cc(Cl)cc(Cl)c1Cl: true
- c1ccc2c(c1)[nH]c1ccccc12: true
- O=C(CCl)c1ccccc1: false
- FC(F)(F)c1ccc(Cl)cc1: false

###

EXPERIMENT NOTES: qHTS assay for small molecule agonists of the antioxidant response element (ARE) signaling pathway measured by Nrf2-dependant transcriptional activity - cell viability counter screen (AID 720653); further: on the % scale 0 is the no-effect control and ±100 the full control effect
CONDITION DETAILS: ARE-bla HepG2 viability, CellTiter-Glo ATP luminescence, 16 h; active compounds read low
Records with an inconclusive call do not appear.
MEASUREMENT KIND: max response (%)

- CC(C)(C)N(NC(=O)c1ccc(Cl)cc1)C(=O)c1ccccc1: -5.92
- C[Si](Cn1cncn1)(c1ccc(F)cc1)c1ccc(F)cc1: -21.1
- COc1nc(C)nc(NC(=O)NS(=O)(=O)c2ccccc2CCC(F)(F)F)n1: 3.55
- Fc1ccc(Oc2ccnc3cc(Cl)cc(Cl)c23)cc1: -31.6
- CN(C)P(=O)(N(C)C)N(C)C: -5.07
- c1cc[n+]2c(c1)-c1cccc[n+]1CC2: 1.16
- COc1cc(OC)nc(Sc2cccc(Cl)c2C(=O)O)n1: -2.11
- CC(C)(C)C(=O)[C@@H](Oc1ccc(Cl)cc1)n1cncn1: 0.855
- O=[N+]([O-])c1cc(C(F)(F)F)cc([N+](=O)[O-])c1Cl: 4.67
- COCC(=O)N(c1c(C)cccc1C)[C@H](C)C(=O)OC: -2.34
- O=[N+]([O-])c1ccc(Oc2ccc(C(F)(F)F)cc2[N+](=O)[O-])cc1: -18.9
- Cc1c(COC(=O)C2C(/C=C(\Cl)C(F)(F)F)C2(C)C)cccc1-c1ccccc1 (stereo not drawn): -14.6
- CCCCOCN(C(=O)CCl)c1c(CC)cccc1CC: -23.8
- O=Cc1cccc(Oc2ccccc2)c1: 2.38
- O=C/C(Cl)=C(/Cl)C(=O)O: -4.23
- CC1(C)Cc2cccc(O)c2O1: 7.61
- COC(=O)/C=C(\C)OP(=O)(OC)OC: 12.7
- COCC(=O)N(c1c(C)cccc1C)N1CCOC1=O: 1.06
- CC1=NNC(=O)N(/N=C/c2cccnc2)C1: -9.52
- CC(C)(C)C(=O)[C@H](Oc1ccc(Cl)cc1)n1cncn1: -6.65
- Cn1cc(-c2ccccc2)c(=O)c(-c2cccc(C(F)(F)F)c2)c1: -0.838
- CCSCCSP(=O)(OC)OC: -6.91
- CNC(=O)N(C)c1nc2ccccc2s1: -8.17
- CCCCN(CC)c1c([N+](=O)[O-])cc(C(F)(F)F)cc1[N+](=O)[O-]: -14.4
- CC/C(=N\OC/C=C/Cl)C1=C(O)CC(C2CCOCC2)CC1=O (stereo not drawn): 1.41
- C/C=C(\C)C(=O)O[C@H]1C[C@@H](OC(C)=O)[C@@]2(C(=O)OC)CO[C@H]3[C@@H](O)[C@@](C)([C@]45O[C@@]4(C)[C@H]4C[C@@H]5O[C@@H]5OC=C[C@@]54O)[C@H]4[C@]1(CO[C@]4(O)C(=O)OC)[C@@H]32: -22.9
- Cc1cc(C)nc(NC(=O)NS(=O)(=O)c2ccccc2C(=O)OC2COC2)n1: 18
- Cc1[nH]c(=O)n(C(C)(C)C)c(=O)c1Cl: 0.82
- C=C(C)C(=O)OCC(CC)CCCC (stereo not drawn): -12.5
- CNc1cnn(-c2cccc(C(F)(F)F)c2)c(=O)c1Cl: 3.99
- O=C(NC(=O)c1c(F)cccc1F)Nc1cc(Cl)c(OC(F)(F)C(F)C(F)(F)F)c(Cl)c1F (stereo not drawn): -22
- CCOP(=O)(OCC)OP(=O)(OCC)OCC: 5.73
- Oc1c(Br)c(Br)c(Br)c(Br)c1Br: -1.75
- CC1CCCCC1NC(=O)Nc1ccccc1 (stereo not drawn): -4.51
- O=[N+]([O-])C(Br)Br: -11.4
- COP(=O)(OC)O/C(=C\Cl)c1cc(Cl)c(Cl)cc1Cl: -14.8
- NS(=O)(=O)C(F)(F)C(F)(F)C(F)(F)C(F)(F)C(F)(F)C(F)(F)C(F)(F)C(F)(F)F: -2.62
- Oc1ccc(C(c2ccc(O)cc2)(C(F)(F)F)C(F)(F)F)cc1: -1.13
- COP(=O)(OC)Oc1ccc([N+](=O)[O-])cc1: -1.73
- CCNc1nc(Cl)nc(NC(C)(C)C#N)n1: -18.8
- CCCCOC(=O)c1ccccc1C(=O)O: 18.5
- CCCCC(O)(Cn1cncn1)c1ccc(Cl)cc1Cl (stereo not drawn): -0.171
- Cc1cc(C2CC2)nc(Nc2ccccc2)n1: 0.0652
- O=C(NC(=O)c1c(F)cccc1F)Nc1ccc(Cl)cc1: -7.3
- O=[N+]([O-])Nc1nccn1Cc1ccc(Cl)nc1: -10.2
- CCNP(=S)(OC)O/C(C)=C/C(=O)OC(C)C (stereo not drawn): -7.95
- O=P(OCC(Br)CBr)(OCC(Br)CBr)OCC(Br)CBr (stereo not drawn): -25.3
- CCCCCCCCCCCCCCC(Br)C(=O)O (stereo not drawn): 1.85

###

Test system: CP329
EXPERIMENT NOTES: qHTS profiling for inhibitors of Plasmodium falciparum proliferation (AID 504749); further: nearly all actives have a fitted effect of over 60% in size
CONDITION DETAILS: P. falciparum in erythrocytes, SYBR Green DNA, 72 h; series mostly up to 28.7 µM
Method: NIH National Institute of Allergy and Infectious Diseases [NIAID] NIH Chemical Genomics Center [NCGC] […] Because mature erythrocytes lack DNA, only Plasmodium-derived DNA is detected. NCGC Assay Protocol Summary: The SYBR Green viability assay was adapted from a method described previously (Plouffe et al., 2008). […] The following morning, fluorescence intensity at 485(14) nm excitation and 535(25) nm emission wavelengths was measured on an EnVision (Perkin Elmer) plate reader. […]
Inconclusive results are not listed. The source made the active and inactive calls. The call rests on the fitted dose curve; in most records, active means well fitted inhibition curve with a large enough effect; inconclusive means small, poorly fitted or top-dose-only effect; inactive means flat fitted curve, though single readings scatter.
Classes used: 1 = active, -1 = inactive

• COC(=O)C1C(OC(=O)c2ccccc2)CC2CCC1N2C (stereo not given) = -1
• CC(=O)[C@H]1CC[C@H]2C3CC[C@H]4C[C@H](O)CC[C@]4(C)C3CC[C@]12C (stereo not given in full) = -1
• CN1C2CCC1C(C(=O)O)C(OC(=O)c1ccccc1)C2 (stereo not given) = -1
• CC1(C)[C@@H](C=C(Cl)Cl)[C@@H]1C(=O)OCc1c(F)c(F)cc(F)c1F = -1
• C=C1Nc2ccccc2C(=O)N1c1ccccc1C = -1
• CN(C)[C@@H](Cc1ccccc1)c1ccccc1 = -1
• C[C@]12CC[C@H]3[C@@H](CC[C@@]45O[C@@H]4C(=O)C(C#N)C[C@]35C)[C@@H]1CC[C@@H]2O (stereo not given in full) = -1
• O=[N+]([O-])OC1CO[C@H]2C(O[N+](=O)[O-])COC12 (stereo not given in full) = -1
• [S]=[Sb][S][Sb]=[S] = -1
• C[C@H](N)Cc1ccccc1 = -1
• CC12CCC3C4CCC(=O)C(O)=C4CCC3C1CCC2OC(=O)CCC1CCCC1 (stereo not given) = -1
• C[C@]12C=CC(=O)C=C1CC[C@@H]1C2CC[C@]2(C)OC(=O)CCC12 (stereo not given in full) = -1
• COc1ccc2c3c1O[C@H]1[C@@H](O)C=C[C@H]4C(C2)NCCC341 (stereo not given in full) = -1
• Cc1ccc2c(c1)[C@@H]1CN(C)CC[C@H]1N2 = -1
• O=C1CC2OCC=C3CN4CCC56c7ccccc7N1C5[C@H]2[C@H]3C[C@H]46 (stereo not given in full) (tested in a mixture with another compound) = -1
• C[C@@H](N)[C@@H](O)c1ccc(O)c(O)c1 = -1
• COC(C(=O)C(O)C(C)O)C1Cc2cc3cc(OC4CC(OC5CC(O)C(OC)C(C)O5)C(OC(C)=O)C(C)O4)c(C)c(O)c3c(O)c2C(=O)C1OC1CC(OC2CC(OC3CC(C)(O)C(OC(C)=O)C(C)O3)C(O)C(C)O2)C(O)C(C)O1 (stereo not given) = 1
• CCOC(=O)/C=C(C)/C=C/CC(C)CCCC(C)C (stereo not given) = -1
• CC(Cc1ccccc1)N(C)C (stereo not given) = -1
• CCCCCc1cc(O)c2c(c1)OC(C)(C)C1CC=C(C)CC21 (stereo not given) = 1
• CC1(C)S[C@@H]2[C@H](N)C(=O)N2C1C(=O)O (stereo not given in full) = -1
• C=CC[C@]1(O)CCC2C3CCC4=CCCCC4C3CCC21C (stereo not given in full) = -1
• C#C[C@]1(O)CC[C@H]2[C@@H]3CCC4=CC(=O)CCC4(C)[C@H]3CCC21C (stereo not given in full) = -1
• OC[C@@H](O)[C@H]1O[C@@H]2OC(C(Cl)(Cl)Cl)O[C@H]2[C@H]1O (stereo not given in full) = -1
• CC1CC[C@@]2(NC1)OC1CC3C4CC[C@@H]5CC(O)CC[C@@]5(C)C4CC[C@]3(C)C1C2C (stereo not given in full) = -1

meta.source: PubChem BioAssay (NCATS)
